Data provenance is patent US9828369B2.

# Assay target: hDGAT2 (Homo sapiens (Human))
# Sequence (Q96PD7 whole entry): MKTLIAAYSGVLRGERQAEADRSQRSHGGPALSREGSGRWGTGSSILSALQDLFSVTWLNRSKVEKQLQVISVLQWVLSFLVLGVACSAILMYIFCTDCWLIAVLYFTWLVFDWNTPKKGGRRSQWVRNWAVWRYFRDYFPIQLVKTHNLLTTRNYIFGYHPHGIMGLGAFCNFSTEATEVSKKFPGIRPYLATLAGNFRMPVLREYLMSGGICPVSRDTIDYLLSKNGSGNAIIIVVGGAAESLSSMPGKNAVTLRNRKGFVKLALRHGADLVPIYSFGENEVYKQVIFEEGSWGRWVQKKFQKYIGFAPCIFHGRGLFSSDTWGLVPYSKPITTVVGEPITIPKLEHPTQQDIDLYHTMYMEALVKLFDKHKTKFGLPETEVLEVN
# Measurement description: DGAT2 enzymatic activity assay (triolein formation, LC/MS/MS)
# Measurement context: read-out: IC50 values for inhibition of DGAT2; membrane prep of Sf-9 cells expressing hDGAT2; 25 μM diolein, 10 μM oleoyl-CoA; room temperature; triolein by LC/MS/MS
Friendly reminder: IC50 below 4000 nM is yes, at or above is no.

Query string: # strict comparison: is reported IC50 < 4000 nM? input = COc1ccc([C@@H]2C[C@@H]2C(=O)NCc2ccc(-c3cccc(OC)c3)c3ccncc23)cc1 (relative stereo)
Result string: yes

Query string: Also, COc1cccc(-c2ccc(CNC(=O)CC(c3ccccc3)c3ccco3)c3cnccc23)c1 (stereo not drawn) please.
Result string: no

Query string: Next entry: COCc1cccc(-c2ccc(CNC(=O)C3CC3c3ccccc3)c3cnccc23)c1 (stereo not drawn)
Result string: yes

Query string: Same read-out for `COc1cccc(-c2ccc(CNC(=O)c3ccc(-c4ccon4)cc3)c3cnccc23)c1` ?
Result string: no

Query string: Another compound to check: `COc1cccc(-c2ccc(CNC(=O)c3ccc(-c4ccccc4)o3)c3cnccc23)c1`
Result string: yes
